Assayed Target: human BCRP (Homo sapiens, UniProt Q9UNQ0)
Sequence (Q9UNQ0 1-655): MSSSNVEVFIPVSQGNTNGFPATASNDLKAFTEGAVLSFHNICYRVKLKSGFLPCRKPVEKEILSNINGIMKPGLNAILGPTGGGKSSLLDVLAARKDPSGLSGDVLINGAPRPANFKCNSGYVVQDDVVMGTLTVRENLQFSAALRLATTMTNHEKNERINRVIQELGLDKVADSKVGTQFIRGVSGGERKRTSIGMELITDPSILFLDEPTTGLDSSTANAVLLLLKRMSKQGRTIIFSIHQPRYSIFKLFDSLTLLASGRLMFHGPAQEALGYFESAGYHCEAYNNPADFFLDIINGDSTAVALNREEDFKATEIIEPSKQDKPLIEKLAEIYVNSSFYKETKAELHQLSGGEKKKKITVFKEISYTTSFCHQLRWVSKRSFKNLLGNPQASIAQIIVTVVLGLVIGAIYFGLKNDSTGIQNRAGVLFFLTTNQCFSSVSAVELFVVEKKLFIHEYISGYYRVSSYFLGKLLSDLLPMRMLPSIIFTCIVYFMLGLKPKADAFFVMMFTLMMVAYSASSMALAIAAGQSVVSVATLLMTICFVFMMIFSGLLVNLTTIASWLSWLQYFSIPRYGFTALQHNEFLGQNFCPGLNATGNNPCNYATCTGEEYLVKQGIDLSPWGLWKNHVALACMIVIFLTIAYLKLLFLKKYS
Protocol Notes: BCRP-mediated vesicular transport assay
Property Label: pIC50
Scale for pIC50: -log10 of concentration given in mol/L; no unit attached.

// query Which pIC50 is listed for NC(=O)c1cnc2[nH]ccc2c1N[C@@H]1[C@@H]2CC3C[C@H]1C[C@@](O)(C3)C2 [Peficitinib] ?
// result 4.87

* * *

Format: in vivo, human
Stated Conditions: human, plasma, oral, 100 mg, individual maximum plasma Cmax, after 100 mg BID
Property Label: Cmax (ng/mL)
// return numeric value only (unit: ng/mL, not printed)

// query Consider the compound "NC(=O)c1cnc2[nH]ccc2c1N[C@@H]1[C@@H]2CC3C[C@H]1C[C@@](O)(C3)C2" and give its measured Cmax.
// result 405
